Origin of measurements: patent US20230322813A1

Test system: Respiratory syncytial virus recombinant with luciferase (RSV-Luc5)
Assay: microbe, parasite or virus in culture
Assay type: cell-based
Settings: human respiratory syncytial virus, NHBE, 72 h, read-out: RSV NHBE EC50
pEC50: −log10 of the molar value.
Hi, to clarify the labels: Fulfilled covers pEC50 from 6 upward, Not fulfilled covers anything below 6.

{"chemical_string": "CC(C)C(=O)OC[C@H]1O[C@@](C#N)(c2ccc3c(=N)n(COP(=O)(O)O)cnn23)[C@H](O)[C@@H]1O", "label_class": "Not fulfilled"}
{"chemical_string": "CCCCCCCC(=O)Nc1ncnn2c([C@]3(C#N)O[C@H](COC(=O)C(C)C)[C@@H](O)[C@H]3O)ccc12", "label_class": "Fulfilled"}
{"chemical_string": "CC(C)C(=O)OC[C@H]1O[C@@](C#N)(c2ccc3c(N)ncnn23)[C@@H]2OC(=O)O[C@@H]21", "label_class": "Fulfilled"}

Now for a further molecule.
Does the reported pEC50 for "CCCC(=O)Nc1ncnn2c([C@]3(C#N)O[C@H](COC(C)=O)[C@@H](OC(C)=O)[C@H]3OC(C)=O)ccc12" fall at or above the 6 mark? Fulfilled

* * *

Assay: in vitro
Format: cell-based
Conditions: human
measured_metric: CC50 (µM)
Lab book: enter the figure in µM, no units written.

{"chemical_string": "CC(C)C(=O)OC[C@H]1O[C@@](C#N)(c2ccc3c(=N)n(COP(=O)(O)O)cnn23)[C@H](O)[C@@H]1O", "unit_descriptor": "µM", "CC50": 50}
{"chemical_string": "CC(C)C(=O)OC[C@H]1O[C@@](C#N)(c2ccc3c(N)ncnn23)[C@@H]2OC(=O)O[C@@H]21", "unit_descriptor": "µM", "CC50": 50}

Short answer for "CCCCCCCC(=O)Nc1ncnn2c([C@]3(C#N)O[C@H](COC(=O)C(C)C)[C@@H](O)[C@H]3O)ccc12" : CC50 was 42.4

* * *

Overview of recorded CC50 for various compounds
Assay: in vitro
Assay type: cell-based
Details: human

Known CC50 results, listed for orientation:
{"compound": "COC1O[C@H]2[C@@H](O1)[C@](C#N)(c1ccc3c(N)ncnn13)O[C@@H]2COC(=O)C(C)C (stereo partly shown)", "CC50": "> 5 µM"}
{"compound": "CC(C)C(=O)OC[C@H]1O[C@@](C#N)(c2ccc3c(=N)n(COP(=O)(O)OCc4ccccc4)cnn23)[C@H](O)[C@@H]1O", "CC50": "> 50 µM"}
{"compound": "CCCCCC(=O)Nc1ncnn2c([C@]3(C#N)O[C@H](COC(=O)C(C)C)[C@@H](O)[C@H]3O)ccc12", "CC50": "> 50 µM"}

Short answer for "CCCC(=O)Nc1ncnn2c([C@]3(C#N)O[C@H](COC(=O)C(C)C)[C@@H](O)[C@H]3O)ccc12" : CC50 was > 50 µM
